Target: Human recombinant S1PR5 lysophospholipid receptor membrane (Homo sapiens)
Sequence (Q9H228 whole entry): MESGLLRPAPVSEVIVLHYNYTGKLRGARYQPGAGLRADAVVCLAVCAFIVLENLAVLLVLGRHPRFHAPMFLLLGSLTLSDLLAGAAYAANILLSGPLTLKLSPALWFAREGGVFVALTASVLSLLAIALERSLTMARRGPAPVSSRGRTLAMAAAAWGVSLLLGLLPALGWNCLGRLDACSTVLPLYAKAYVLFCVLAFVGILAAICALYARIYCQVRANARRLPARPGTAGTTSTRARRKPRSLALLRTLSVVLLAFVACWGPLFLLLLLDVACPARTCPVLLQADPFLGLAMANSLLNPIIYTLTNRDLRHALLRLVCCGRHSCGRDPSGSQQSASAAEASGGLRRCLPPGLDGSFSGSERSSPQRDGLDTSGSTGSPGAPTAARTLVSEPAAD
Experiment: [^32P]S1P competitive binding assay, S1PR5
pIC50: −log10 of the molar value.
measuredParameter: pIC50

pIC50 recorded for this compound, COc1ccc(NC(=O)Cn2c(=O)c3ccccc3n(CC(=O)Nc3cc(I)c(OC)cc3OC)c2=O)cc1 , is < 6.00

----------
Target: Human recombinant S1PR1 lysophospholipid receptor membrane (Homo sapiens)
Sequence (P21453 whole entry): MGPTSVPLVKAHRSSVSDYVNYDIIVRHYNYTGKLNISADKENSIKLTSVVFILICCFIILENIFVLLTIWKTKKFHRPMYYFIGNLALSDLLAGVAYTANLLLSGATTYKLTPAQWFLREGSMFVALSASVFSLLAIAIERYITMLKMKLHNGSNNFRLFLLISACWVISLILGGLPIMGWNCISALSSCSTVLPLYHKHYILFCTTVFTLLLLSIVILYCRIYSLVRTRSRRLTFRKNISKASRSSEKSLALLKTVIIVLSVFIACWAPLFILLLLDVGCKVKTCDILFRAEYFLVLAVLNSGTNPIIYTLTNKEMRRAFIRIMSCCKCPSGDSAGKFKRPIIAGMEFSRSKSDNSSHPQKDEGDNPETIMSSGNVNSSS
Experiment: [^32P]S1P competitive binding assay, S1PR1
pIC50: −log10 of the molar value.
measuredParameter: pIC50

Record COc1ccc(NC(=O)Cn2c(=O)c3ccccc3n(CC(=O)Nc3cc(I)c(OC)cc3OC)c2=O)cc1 . Reported pIC50: < 6.00
